TEST READOUT: melting point

Examples with their reported melting point follow.
• CCn1nc(C(F)(F)F)c(CS(=O)(=O)C2=NOC(C)(CCl)C2)c1S(C)(=O)=O (stereo not given) = 113 to 114 °C
• O=C(NCCc1ccccc1)c1ccccc1-c1ccccc1CNS(=O)(=O)c1cccc(F)c1 = 153 °C
• CC(C)(C)NS(=O)(=O)c1cccc2c1C(O)CCC2 (stereo not given) = 100 to 111 °C

Okay, now this compound:
Please give the measured melting point for this compound: "CN1CCCCc2cc(Nc3ncc(Cl)c(N[C@@H]4CCCC[C@H]4NS(C)(=O)=O)n3)ccc21"
102 to 104 °C

* * *

TEST READOUT: melting point

Sample records with melting point:
* CCC(CC)Oc1cc(C)nc2c1nc(N)n2-c1c(C)cc(C)cc1C | 159 to 161 °C
* CCc1nc2cc(/C=C/C(=O)NO)c(F)cc2c(=O)n1CCc1ccccc1 | 219 to 221 °C

Which value of melting point has been reported for "COc1ccc(Cn2cc(C(=O)C(=O)NC3=CC(=O)OC3)c3ccccc32)cc1" in the records?
265 to 267 °C

Consider the compound "CCCCNC(=O)CCCCCCCSc1nc(-c2ccccc2)c(-c2ccccc2)[nH]1" and give its measured melting point.
136 to 137 °C

Requested read-out: melting point. Entry: "CCOP(=O)(/C=C/c1cn(-c2ccccc2)nc1OCc1ccc(OCc2nc(N3CCCCC3)sc2C)c(OC)c1)OCC"
95 to 96 °C

Using the record for CCOC(=O)CC1SC(c2cc(C(C)(C)C)c(O)c(C(C)(C)C)c2)N(CCCN(C)CCOc2ccc3c(c2)OCO3)C1=O (stereo unspecified) , report its melting point.
88 to 89 °C

Can you look up the measured melting point of "Cc1cc(F)ccc1C=CC#N" for me?
86 to 87 °C

* * *

Consider the following compounds and their measured melting point readings.

Answered examples (6):
• Cc1ccccc1Oc1cc(Cl)ccc1C(=O)O = 158 to 159 °C
• Nc1cccc(-c2ccc(CCN3CCN(C(=O)NC4CCCCC4)CC3)cc2)n1 = 180 to 182 °C
• COC(=O)c1cc2cc(COc3cccnc3)ccc2s1 = 106 to 107 °C
• CC(C)c1nn(-c2ccc(Cl)cn2)cc1CCCOc1ccccc1CC(=O)O = 141 to 142 °C
• Cc1nc(N2CCC(NCCC(F)(F)F)C2=O)sc1C(=O)NCc1ccc(F)cc1 (stereo not given) = 142 to 143 °C
• COc1cc2c(c(OC)c1OC)C[C@@H](N1CCN(C(=O)C=Cc3ccccc3)CC1)[C@@H]2O (relative stereo) = 162 to 163 °C

Endpoint output: melting point of "Cc1nc(Cn2cnc3c2c(=O)n(C)c(=O)n3C)no1" . Value?
135 °C

Sample "C/C=C(/COC(=O)CNC(=O)C(F)(F)F)c1ccccc1" — what was its melting point?
49 to 50 °C

Param item = CC(C)(CC(O)(Cn1ccc2c1CCCC2=O)C(F)(F)F)c1cc(-c2cncnc2)cc2c1OCC2 (stereo not given) ; retrieve measured melting point.
213 to 214 °C

Given the compound "Cc1ccc(C(=O)c2cc(CN3CCOCC3)c(O)c(C(C)(C)C)c2)cc1" , what is its reported melting point?
131 to 133 °C

* * *

TEST READOUT: melting point

Worked cases, melting point given:
• COC(=O)NC1CCc2sc(Cl)c(C(=O)CCC(=O)O)c2C1 (configuration not stated) = 178 to 179 °C
• COCCN1CCc2cc(Nc3ncc(Cl)c(Nc4ccc(C(N)=O)cc4OC)n3)c(OC)cc2CC1 = 100 to 112 °C
• CCC(C)(C)N=C(Nc1cncnc1)c1ccc(Cl)cc1Cl = 136 to 137 °C

Look up melting point for this compound: "N#Cc1c(Nc2ccccc2)cccc1Oc1ccccc1"
146 to 147 °C

For the compound "CC(C)(C)c1csc(-c2cc3cc(CO)ccc3o2)n1" , what melting point is on record?
143 to 144 °C

Reported melting point, compound "CCCCc1nc2c(N)nc3ccccc3c2n1CCCCNS(=O)(=O)c1ccccc1" : ____
75.5 to 79 °C

Which melting point reading was recorded for the compound "CC1(C)COC(=O)N1c1nc(-c2ccccc2)cs1" ?
94 to 97 °C

Name the recorded melting point for "Cc1oc(COc2ccc(/C=C/CO)cc2)nc1-c1ccccc1" .
154 to 155 °C

Reported melting point for "CCOC(=O)C(C#N)=CNc1csc(-c2ccccc2)c1" : what is it?
190 to 193 °C

Record request: melting point value, item "CNCCc1[nH]c2ccccc2c1-c1ccccc1"
148 to 151 °C

Requested field: melting point. Item: "O=C(O)c1cc(=O)cc(-c2ccc(OCc3ccccc3)cc2)o1"
235 °C

Entry under review: "CCCCCCCCCCCCCCOc1ccc(CC(=O)NCCc2ccccn2)cc1" . Reported melting point?
90 to 91 °C

Return reported melting point; argument: "CCCCCCc1nccc2c(CC(=O)O)cccc12"
152 °C

Entry under review: "Cc1nnc2n1-c1sc(CCS(=O)(=O)N3CCN(C)CC3)cc1C(c1ccccc1Cl)=NC2" . Reported melting point?
148 to 150 °C

I'd like to know its melting point. The compound in question is "Oc1ccc(-c2nc3cc(O)cc(Br)c3o2)cc1"
139 to 141 °C

Find the recorded melting point belonging to "CC(=Nc1cc(C(F)(F)F)cc2nc(C)n(C(C)C)c12)c1ccccc1" and report it.
164 to 166 °C

// query melting point value for entry "N#Cc1ccc(C(=O)c2ccc(F)cc2)c(CO)c1"
85 °C

What value of melting point has been reported for the following compound? CCCC(=O)Nc1cc(/C=C/C(=O)N2CC(CCl)c3ccc(NC(=O)OCc4ccc([N+](=O)[O-])cc4)cc32)n(C)c1 (configuration not stated)
207 to 210 °C

Query (compound): "Nc1ncc(CCO)s1" ; field requested: melting point
125 to 127 °C

Which melting point reading was recorded for the compound "Nc1c([N+](=O)[O-])cnn1-c1ncc(Cl)cc1Cl" ?
194 °C

If you can, please state the reported melting point value of "COC(=O)c1sccc1Nc1ccnc2c(Cl)cccc12" .
226 °C

Field request: melting point | item: "O=C(O)CCCCCCCCCCCc1ccccc1"
47 to 48 °C

* * *

TEST READOUT: melting point

* CCn1cc(-c2ccncn2)cc(Br)c1=O | 195 to 197 °C
* O=C(NC[C@@H]1CCNC[C@H]1O)c1cc(Cl)cc2c1OCCCO2 | 114 °C
* CCc1nc2c(o1)C(=O)C(C)=C(NCCN(C)C)C2=O | 135 °C

Suppose we examine the molecule "c1ccc(-c2nn3c(c2-c2nc4ccccc4[nH]2)CCC3)nc1" ; what melting point value has been reported?
172 to 175 °C

Look up melting point for this molecule: "Cc1cc2c(-c3cccc(CCC(=O)O)c3)c(CC(=O)Nc3ccc(F)cc3C(F)(F)F)c(=O)oc2cc1Cl"
212 to 214 °C

// lookup melting point for NCCc1ccc(OCC2CCCO2)c(S(N)(=O)=O)c1 (stereo not given)
135 to 140 °C

* * *

TEST READOUT: melting point

Previously resolved entries follow.
• Cc1cc(Cn2cncc2C)cc2c1Cc1c(-c3ccsc3)n[nH]c1-2 = 260 to 264 °C
• C#CCN(C(C)C)C(C)CC1=C2c3ccc(OC)cc3CCC2CCNC1=O (stereo not given) = 146 to 148 °C
• CCCn1c(=O)c(-c2ccccc2)c2n(c1=O)CCCS2(=O)=O = 179 to 180 °C
• O=S(CCN1C=CC=CC=C1)c1ccccc1 (stereo not given) = 195 °C
• COC1(c2cc(F)cc(OCc3ccc4c(c3)C(=O)N(C)S4(=O)=O)c2)CCOCC1 = 155 to 156 °C

Endpoint output: melting point of Cc1ccc(S(=O)(=O)NC(Cc2ccccc2)C(=O)Nc2c(F)cc(F)cc2F)cc1 (stereo not given) . Value?
180 to 181 °C

Value lookup for melting point; key = "CC(=O)Nc1ccccc1C#Cc1c(F)c(F)nc(F)c1F"
204 to 205 °C

* * *

# reported melting point; entries follow

Form field: reported melting point of "Cc1cccc(NC(=O)OC(C)(C)C)c1CNc1cccn2c(C)c(C)nc12"
128 to 131 °C

* * *

TEST READOUT: melting point

Completed entries (count: 9):
- CC(=O)c1cccc2c1OC1(CC1)C2=O: 114 to 115 °C
- CS(=O)(=O)c1ccc(C[C@@H](NC(=O)OCc2ccccc2)[C@H](O)C(N)=O)cc1: 186 to 191 °C
- O=C(NCC1Cc2cc(Br)cc3[nH]c(=O)c(=O)n1c23)c1ccccc1 (stereo not given): 180 to 182 °C
- CCCC(=O)C(=CNc1ccc(CO)cc1)C(=O)OCC: 44 to 46 °C
- CC(C)(C)c1cc(Cl)nc(N)n1: 87.7 to 88.9 °C
- O=[N+]([O-])c1cn2c(n1)OC[C@@H](OCc1csc(-c3ccc(OC(F)(F)F)cc3)n1)C2: 140 to 141 °C
- Cc1c(NC(=O)CC(C)(C)C)c(C)c2c(c1-c1cccnc1)OCC2c1ccc(C(C)C)cc1 (stereo not given): 142 to 144 °C
- O=C(O)Cn1c(=O)n(S(=O)(=O)c2ccccc2)c(=O)c2ccc(Cl)cc21: 212 to 214 °C
- O=C(c1cnc2c(n1)CCCC2)C1CCCCC1: 63.5 to 64.5 °C

Alright, here's another compound for you.
Entry "Cc1cc(-c2csc(NC(=N)N)n2)c[nH]1" : reported melting point = ?
235 to 237 °C
